- Test system: BALb/c mice
- testName: Mouse tail bleeding time
- Assay type: in vivo
- conditions: 1 mg·kg^−1 tail vein, tail transected after 10 min
List of Bleeding time values.

molecule: NAPTin-7 (protein, Sequence derived from Ancylostoma caninum or Synthetic) NPSCGENERHDECSRKECDPKCKYDGTEEKDDEKPVVCLTRVCYGDCICRDGFLRNKNGACVKAEDC
Bleeding time (min): 8.26

molecule: NAPTin-1 (protein, Sequence derived from Ancylostoma caninum or Synthetic) NPSCGENERHDECSRKECDPKCKYDGTEEKDDEKPVVCLTRVCYGDCICRDGFLRNKNGACVKAEDCELD
Bleeding time (min): 8.30

molecule: NAPTin-5 (protein, Sequence derived from Ancylostoma caninum or Synthetic) NPSCGENERHDECSRKECDPKCKYDGTEEKDDEKPVVCLTRVCYGDCICRDGFLRNKNGACVKAEDCEL
Bleeding time (min): 8.31

molecule: NAPTin-3 (protein, Sequence derived from Ancylostoma caninum or Synthetic) NPSCGENERHDECSRKECDPKCKYDGTEEKDDEKPVVCLTRVCYGDCICRDGFLRNKNGACVKAEDCELDNM
Bleeding time (min): 8.29
